Target: Pyp1 (Saccharomyces cerevisiae, UniProt P53981)
Construct: made in house; host or cells: E. coli BL21 (DE3) Gold
Sequence (P53981 whole entry): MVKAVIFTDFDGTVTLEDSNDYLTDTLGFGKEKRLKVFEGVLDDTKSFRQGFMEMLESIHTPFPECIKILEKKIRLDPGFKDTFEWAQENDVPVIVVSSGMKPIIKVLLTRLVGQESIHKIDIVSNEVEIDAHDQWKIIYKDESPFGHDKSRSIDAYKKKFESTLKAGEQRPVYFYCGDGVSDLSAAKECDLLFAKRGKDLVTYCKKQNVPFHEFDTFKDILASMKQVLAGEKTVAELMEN
Experiment: Phosphatase activity of purified recombinant Pyp1 against phosphorylated substrates
Format: biochemical, S. cerevisiae
Details: incubation with purified Pyp1, 0.5 mM substrate
OBSERVABLE: Pyp1 phosphatase activity on substrate (in words)

- O=P(O)(O)OCC(O)CO [glycerol-1P, D-glycerol-3-phosphate]: depletion
- O=P(O)(O)OC[C@@H](O)[C@@H](O)[C@@H](O)CO [ribitol-5P, ribitol-5-phosphate]: depletion
- O=P(O)(O)OCC(O)CO (racemic) [racemic glycerol-3P]: hydrolysis
- O=C[C@H](O)[C@H](O)COP(=O)(O)O: hydrolysis

---

Target: yeast Pgi1 (phosphoglucose isomerase) (Saccharomyces cerevisiae)
Sequence (P12709 2-554 limits assumed): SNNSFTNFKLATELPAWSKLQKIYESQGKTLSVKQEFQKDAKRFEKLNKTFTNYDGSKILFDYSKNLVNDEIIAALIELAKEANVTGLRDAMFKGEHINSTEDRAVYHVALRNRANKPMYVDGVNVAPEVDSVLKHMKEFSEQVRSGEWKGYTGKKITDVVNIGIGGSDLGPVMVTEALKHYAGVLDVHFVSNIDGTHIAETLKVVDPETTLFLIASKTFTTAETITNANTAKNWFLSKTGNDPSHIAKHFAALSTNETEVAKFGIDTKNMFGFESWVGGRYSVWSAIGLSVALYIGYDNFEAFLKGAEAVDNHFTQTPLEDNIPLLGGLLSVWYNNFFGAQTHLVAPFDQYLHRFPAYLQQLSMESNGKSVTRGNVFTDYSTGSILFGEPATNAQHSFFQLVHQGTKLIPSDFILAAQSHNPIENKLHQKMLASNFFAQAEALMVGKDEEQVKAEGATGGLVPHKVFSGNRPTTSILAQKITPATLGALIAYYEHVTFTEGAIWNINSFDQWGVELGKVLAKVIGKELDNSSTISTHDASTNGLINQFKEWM
OBSERVABLE: IC50

Any idea what IC50 was measured for O=P(O)(O)OC[C@@H](O)[C@@H](O)[C@H](O)[C@@H](O)CO [sorbitol-6P, sorbitol-6-phosphate] ?
~50 µM
